Test system: Bacillus subtilis
experiment_summary: cleaved RNA product abundance (RNA/gDNA barcode ratio) relative to median wild-type variant (ratio to wild type); higher = more accumulation of the downstream cleavage product
particulars: experiment (reporter, strain, medium): exp 8a: truncated aprE reporter, strain BJT201 with 2% xylose (RNase J1 expressed); cleavage site: glnRA (positions -5 to +31 mutated)
Values of cleaved RNA product abundance greater than or equal to 0.9 map to y; values below map to n.

Example cases with answers are listed next.
* CGACATGTCCCGCTTCTTTCATTAATCCGTTAGCAACTGTTTTGCTATATACATTTACCGTTTAAGAGGAGGAAT | y
* CGACATGTCCCGCTTCTTTCATTAATCCGTTAGCAACTGTTTTGCAATAAACATTTACCTTTTAAGAGGAGGAAT | n
* CGACATGTCCCGCTTCTTTCATTATTCCGTTAACAACTGTTTTGCTATATACATATACCTTTTAAGAGGAGGAAT | n

Threshold query (cleaved RNA product abundance >= 0.9) on CGACATGTCCCGCTTCTTTCATTAATCCGTTAGAAACTGTTTTGCTATATACATTTACTTTTTAAGAGGAGGAAT
n

Threshold query (cleaved RNA product abundance >= 0.9) on CGACATGTCCCGCTTCTTTCATTAATCCGTTAGCAACTGTTTATCTATATACATTTACCTTTTAAGAGGAGGAAT
n

Threshold query (cleaved RNA product abundance >= 0.9) on CGACATGTCCCGCTTCTTTCATTAATCCGTTAGCAACTATTTTGCTATATACACTTACCTTTTAAGAGGAGGAAT
y
